Test system: NCI-H661
procedure-summary: relative viability (nuclei count vs DMSO), 5 days (fraction); higher = more cells survive
condition-info: first compound 2.53 µM
Catalogue of relative viability readings, one per entry.
Number only, please.

Study these solved cases before continuing.
COc1nc(C)cnc1NS(=O)(=O)c1cccnc1-c1ccc(-c2nnco2)cc1 [Zibotentan] + CCNC(=O)c1noc(-c2cc(C(C)C)c(O)cc2O)c1-c1ccc(CN2CCOCC2)cc1 [Luminespib] (partner 0.01 µM) : 0.922
O=c1cc(-c2cccc3c2Sc2ccccc2S3)oc(N2CCOCC2)c1 + O=C(c1cc(Cc2n[nH]c(=O)c3ccccc23)ccc1F)N1CCN(C(=O)C2CC2)CC1 [Olaparib] (partner 8 µM) : 0.777
O=c1cc(-c2cccc3c2Sc2ccccc2S3)oc(N2CCOCC2)c1 + C[C@]1(O)C[C@@H](c2nc(-c3ccc4ccc(-c5ccccc5)nc4c3)c3c(N)nccn32)C1 [Linsitinib] (partner 1 µM) : 0.527
COc1nc(C)cnc1NS(=O)(=O)c1cccnc1-c1ccc(-c2nnco2)cc1 [Zibotentan] + Cc1nc(Nc2ncc(C(=O)Nc3c(C)cccc3Cl)s2)cc(N2CCN(CCO)CC2)n1 [Dasatinib] (partner 0.075 µM) : 0.939
COc1nc(C)cnc1NS(=O)(=O)c1cccnc1-c1ccc(-c2nnco2)cc1 [Zibotentan] + Nc1ncn([C@H]2C[C@H](O)[C@@H](CO)O2)c(=O)n1 [Decitabine] (partner 2 µM) : 0.552

Consider the record given below.
# assay system NCI-H661: give relative viability of COc1nc(C)cnc1NS(=O)(=O)c1cccnc1-c1ccc(-c2nnco2)cc1 [Zibotentan] + COc1cc2c(Oc3ccc(NC(=O)C4(C(=O)Nc5ccc(F)cc5)CC4)cc3F)ccnc2cc1OCCCN1CCOCC1 [Foretinib] (partner 0.25 µM)
1.01
